- Tested on: HeLa Kyoto
- method-notes: melting temperature (median over replicates), in situ; higher = more thermally stable
- measurement-conditions: cell cycle stage: G1/S
readout-label: melting temperature (°C)
Give bare numbers, in °C.

# batch size: 4; output melting temperature per entry
1. MENQVLTPHVYWAQRHRELYLRVELSDVQNPAISITENVLHFKAQGHGAKGDNVYEFHLEFLDLVKPEPVYKLTQRQVNITVQKKVSQWWERLTKQEKRPLFLAPDFDRWLDESDAEMELRAKEEERLNKLRLESEGSPETLTNLRKGYLFMYNLVQFLGFSWIFVNLTVRFCILGKESFYDTFHTVADMMYFCQMLAVVETINAAIGVTTSPVLPSLIQLLGRNFILFIIFGTMEEMQNKAVVFFVFYLWSAIEIFRYSFYMLTCIDMDWKVLTWLRYTLWIPLYPLGCLAEAVSVIQSIPIFNETGRFSFTLPYPVKIKVRFSFFLQIYLIMIFLGLYINFRHLYKQRRRRYGQKKKKIH [HACD3]
2. MDDTLFQLKFTAKQLEKLAKKAEKDSKAEQAKVKKALLQKNVECARVYAENAIRKKNEGVNWLRMASRVDAVASKVQTAVTMKGVTKNMAQVTKALDKALSTMDLQKVSSVMDRFEQQVQNLDVHTSVMEDSMSSATTLTTPQEQVDSLIMQIAEENGLEVLDQLSQLPEGASAVGESSVRSQEDQLSRRLAALRN [CHMP1A]
3. MAMQAAKRANIRLPPEVNRILYIRNLPYKITAEEMYDIFGKYGPIRQIRVGNTPETRGTAYVVYEDIFDAKNACDHLSGFNVCNRYLVVLYYNANRAFQKMDTKKKEEQLKLLKEKYGINTDPPK [SF3B6]
4. MLPLSLLKTAQNHPMLVELKNGETYNGHLVSCDNWMNINLREVICTSRDGDKFWRMPECYIRGSTIKYLRIPDEIIDMVKEEVVAKGRGRGGLQQQKQQKGRGMGGAGRGVFGGRGRGGIPGTGRGQPEKKPGRQAGKQ [LSM4]

[53.8, 54.4, 51.1, 58.1]

Report melting temperature for every entry below.
1. ARFGEF1
2. MAASTASHRPIKGILKNKTSTTSSMVASAEQPRGNVDEELSKKSQKWDEMNILATYHPADKDYGLMKIDEPSTPYHSMMGDDEDACSDTEATEAMAPDILARKLAAAEGLEPKYRIQEQESSGEEDSDLSPEEREKKRQFEMKRKLHYNEGLNIKLARQLISKDLHDDDEDEEMLETADGESMNTEESNQGSTPSDQQQNKLRSS [PPP1R2]
3. MGSRVSREDFEWVYTDQPHADRRREILAKYPEIKSLMKPDPNLIWIIIMMVLTQLGAFYIVKDLDWKWVIFGAYAFGSCINHSMTLAIHEIAHNAAFGNCKAMWNRWFGMFANLPIGIPYSISFKRYHMDHHRYLGADGVDVDIPTDFEGWFFCTAFRKFIWVILQPLFYAFRPLFINPKPITYLEVINTVAQVTFDILIYYFLGIKSLVYMLAASLLGLGLHPISGHFIAEHYMFLKGHETYSYYGPLNLLTFNVGYHNEHHDFPNIPGKSLPLVRKIAAEYYDNLPHYNSWIKVLYDFVMDDTISPYSRMKRHQKGEMVLE [DEGS1]

[50.8, 59.3, 55]

----------
Record form. Attribute: solubility change mitosis (log2). Fill in for each entry.
- System: HeLa Kyoto
- method-notes: solubility change mitosis vs G1/S (difference of NP-40 vs SDS log2 ratios) (log2 ratio difference); higher = more soluble in mitosis
Numbers only.

Consider the worked cases shown below.
- chain-sequence: "MNNLNDPPNWNIRPNSRADGGDGSRWNYALLVPMLGLAAFRWIWSRESQKEVEKEREAYRRRTAAFQQDLEAKYHAMISENRRAVAQLSLELEKEQNRTASYREALISQGRKLVEEKKLLEQERAQVMQEKRQVQPLRSAYLSCLQREENWQRRARLLLKEFEAVLTERQNIYCSLFLPRSKRLEIEKSLLVRASVDPVAADLEMAAGLTDIFQHDTYCGDVWNTNKRQNGRLMWLYLKYWELVVELKKFKRVEEAILEK [CCDC127]"
  target-or-system: "HeLa Kyoto"
  solubility change mitosis (log2): 0.115
- chain-sequence: "MAMQAAKRANIRLPPEVNRILYIRNLPYKITAEEMYDIFGKYGPIRQIRVGNTPETRGTAYVVYEDIFDAKNACDHLSGFNVCNRYLVVLYYNANRAFQKMDTKKKEEQLKLLKEKYGINTDPPK [SF3B6]"
  target-or-system: "HeLa Kyoto"
  solubility change mitosis (log2): 0.618
- chain-sequence: "MGSRVSREDFEWVYTDQPHADRRREILAKYPEIKSLMKPDPNLIWIIIMMVLTQLGAFYIVKDLDWKWVIFGAYAFGSCINHSMTLAIHEIAHNAAFGNCKAMWNRWFGMFANLPIGIPYSISFKRYHMDHHRYLGADGVDVDIPTDFEGWFFCTAFRKFIWVILQPLFYAFRPLFINPKPITYLEVINTVAQVTFDILIYYFLGIKSLVYMLAASLLGLGLHPISGHFIAEHYMFLKGHETYSYYGPLNLLTFNVGYHNEHHDFPNIPGKSLPLVRKIAAEYYDNLPHYNSWIKVLYDFVMDDTISPYSRMKRHQKGEMVLE [DEGS1]"
  target-or-system: "HeLa Kyoto"
  solubility change mitosis (log2): -0.264

# context switch: different sequence, same solubility change mitosis (log2)
Query the reported solubility change mitosis (log2) for HeLa Kyoto; item: MAAVLKPVLLGLRDAPVHGSPTGPGAWTASKLGGIPDALPTVAAPRPVCQRCGQPLALVVQVYCPLEGSPFHRLLHVFACACPGCSTGGARSWKVFRSQCLQVPEREAQDAQKQGNSLAAEDWCEGADDWGSDTEEGPSPQFTLDFGNDASSAKDVDWTARLQDLRLQDAVLGAAHPVPPGLPLFLPYYICVADEDDYRDFVNLDHAHSLLRDYQQREGIAMDQLLSQSLPNDGDEKYEKTIIKSGDQTFYKFMKRIAACQEQILRYSWSGEPLFLTCPTSEVTELPACSQCGGQRIFEFQLMPALVSMLKSANLGLSVEFGTILVYTCEKSCWPPNHQTPMEEFCIIQEDPDELLFK [PDCD2L] 0.0741

----------
- Tested on: HeLa Kyoto
- method-notes: solubility in G1/S (NP-40 vs SDS abundance) (log2 ratio); higher = more soluble
- measurement-conditions: cell cycle stage: G1/S
readout-label: solubility in G1/S (log2)
Give bare numbers.

Answered examples (3):
- chain-sequence: "MRRMWATQGLAVALALSVLPGSRALRPGDCEVCISYLGRFYQDLKDRDVTFSPATIENELIKFCREARGKENRLCYYIGATDDAATKIINEVSKPLAHHIPVEKICEKLKKKDSQICELKYDKQIDLSTVDLKKLRVKELKKILDDWGETCKGCAEKSDYIRKINELMPKYAPKAASARTDL [MANF]"
  endpoint-result: 0.682
- chain-sequence: "MAPSGSLAVPLAVLVLLLWGAPWTHGRRSNVRVITDENWRELLEGDWMIEFYAPWCPACQNLQPEWESFAEWGEDLEVNIAKVDVTEQPGLSGRFIITALPTIYHCKDGEFRRYQGPRTKKDFINFISDKEWKSIEPVSSWFGPGSVLMSSMSALFQLSMWIRTCHNYFIEDLGLPVWGSYTVFALATLFSGLLLGLCMIFVADCLCPSKRRRPQPYPYPSKKLLSESAQPLKKVEEEQEADEEDVSEEEAESKEGTNKDFPQNAIRQRSLGPSLATDKS [TMX1]"
  endpoint-result: -0.0895
- chain-sequence: "MLPAALLRRPGLGRLVRHARAYAEAAAAPAAASGPNQMSFTFASPTQVFFNGANVRQVDVPTLTGAFGILAAHVPTLQVLRPGLVVVHAEDGTTSKYFVSSGSIAVNADSSVQLLAEEAVTLDMLDLGAAKANLEKAQAELVGTADEATRAEIQIRIEANEALVKALE [ATP5D]"
  endpoint-result: 0.603

Quick one: solubility in G1/S (log2) of MAWRGWAQRGWGCGQAWGASVGGRSCEELTAVLTPPQLLGRRFNFFIQQKCGFRKAPRKVEPRRSDPGTSGEAYKRSALIPPVEETVFYPSPYPIRSLIKPLFFTVGFTGCAFGSAAIWQYESLKSRVQSYFDGIKADWLDSIRPQKEGDFRKEINKWWNNLSDGQRTVTGIIAANVLVFCLWRVPSLQRTMIRYFTSNPASKVLCSPMLLSTFSHFSLFHMAANMYVLWSFSSSIVNILGQEQFMAVYLSAGVISNFVSYVGKVATGRYGPSLGASGAIMTVLAAVCTKIPEGRLAIIFLPMFTFTAGNALKAIIAMDTAGMILGWKFFDHAAHLGGALFGIWYVTYGHELIWKNREPLVKIWHEIRTNGPKKGGGSK [PARL] ? -0.0323
